target: UBE2L6; assay: reporter assay of Huesken 2005; settings: siRNA; also: test concentration or dose not given here
Oligonucleotides are written 5' to 3', each unit as a sugar letter and its base; * is a phosphorothioate linkage, no mark a phosphodiester; rarer units and linkages stand in square brackets, end groups in braces. Plain capitals give the bases only. d = 2'-deoxy (DNA); r = 2'-OH (RNA)
metric-name: normalised inhibition (eCFP-eYFP dual reporter) (%)
Provide only the numeric value, understood in %.

// worked examples, normalised inhibition (eCFP-eYFP dual reporter) included
[
  {
    "substance": "sense rGrGrCrArCrGrCrUrCrUrCrCrUrCrCrUrArCrCdTdT / antisense rGrGrUrArGrGrArGrGrArGrArGrCrGrUrGrCrCdAdC",
    "result-number": 62.5
  },
  {
    "substance": "sense rArUrCrArGrCrArGrUrGrArGrArArCrUrGrGrAdTdT / antisense rUrCrCrArGrUrUrCrUrCrArCrUrGrCrUrGrArUdGdA",
    "result-number": 82.9
  }
]

Challenge: For the substance sense rCrCrArUrArCrCrUrGrCrGrGrArArCrCrUrGrUdTdT / antisense rArCrArGrGrUrUrCrCrGrCrArGrGrUrArUrGrGdGdG , what normalised inhibition (eCFP-eYFP dual reporter) is on record?
Response given: 88.3
